- Tested on: DU-145 prostate
- assay-details: NCI tumour cell line growth inhibition, 48 h
outcome-measure: GI50

substance-smiles | result
C[C@@H]1CCN(C(=O)CC#N)C[C@@H]1N(C)c1ncnc2[nH]ccc12 | > 100 µM
Cc1cc2c(C(N)=O)cccc2n1-c1nc2c(c(NCc3ccccc3)n1)CCCN2 | 0.29 µM
CC1(C)N=C(N)N=C(N)N1c1cccc(CCCCc2ccc(S(=O)(=O)F)cc2Cl)c1 | 4.06 µM

Input: DU-145 prostate / GI50 / O=C(c1cc(-c2cc3c(cc2C(=O)N2Cc4ccccc4C[C@H]2CN2CCOCC2)OCO3)n2c1CCCC2)N(c1ccccc1)c1ccc(O)cc1 : value?
Output: 18 µM

Input: DU-145 prostate / GI50 / COc1cc2cnc3c(c2cc1OC)Cc1cc2c(cc1-3)OCO2 : value?
Output: 0.0338 µM

Input: DU-145 prostate / GI50 / CCOC(=O)C(Cc1c[nH]c2cc([N+](=O)[O-])ccc12)(NC(C)=O)C(=O)OCC : value?
Output: > 542 µM

Input: DU-145 prostate / GI50 / c1ccc2[nH]c(-c3ccc(OCCCCCOc4ccc(-c5nc6ccccc6[nH]5)cc4)cc3)nc2c1 : value?
Output: 0.639 µM

Input: DU-145 prostate / GI50 / O=c1[nH]nc2c3c(cccc13)NC(CN1Cc3ccccc3C1)=N2 : value?
Output: 5 µM
